Assay summary: Bioavailability in Sprague-Dawley rat
Type: ADME, organism-based
Condition info: in vivo
Measured quantity: bioavailability (%)

A: N#Cc1cnc2cnc(NCc3cccnc3)cc2c1NC1CCCCCC1
B: N#Cc1cnc2ccc(NCc3c[nH]cn3)cc2c1Nc1ccc(F)c(Cl)c1
Lab notebook, comparison: A versus B , higher bioavailability goes to which? Use the label to indicate which entry you chose. A
(A: 14%, B: 1%)

###

Assay summary: Inhibition of Tpl2 kinase assessed as MEK phosphorylation by ELISA
Parameters: species or system Homo sapiens
pIC50: −log10 of the molar value.
Measured quantity: pIC50

Past entries and their recorded results:
- Structure as smiles: "N#Cc1cnc2ccc(NCCN3CCOCC3)cc2c1Nc1ccc(F)c(Cl)c1"
  pIC50: 6.00
- Structure as smiles: "C#CC(C)(C)Nc1c(C#N)cnc2cnc(NCc3cccnc3)cc12"
  pIC50: 6.57
- Structure as smiles: "N#Cc1cnc2ccc(NCCN3CCOCC3)cc2c1NC1CCCC1"
  pIC50: 4.71
- Structure as smiles: "N#Cc1cnc2ccc(NCc3cccnc3)cc2c1NC1CCCCCC1"
  pIC50: 5.59

A: CC(C)(C)Nc1c(C#N)cnc2ccc(NCc3ccn[nH]3)cc12
B: Cn1ccnc1CNc1ccc2ncc(C#N)c(NC3CCCC3)c2c1
Lab notebook, comparison: A versus B , higher pIC50 goes to which? Use the label to indicate which entry you chose. A
(A: 5.80, B: 5.52)

I: N#Cc1cccc(CNc2ccc3ncc(C#N)c(NC4CCCC4)c3c2)c1
II: N#Cc1cnc2cnc(Nc3ccc(F)c(Cl)c3)cc2c1NC1CCCC1
Lab notebook, comparison: I versus II , higher pIC50 goes to which? Use the label to indicate which entry you chose. I
